test system: OCI-My-2; test: In vitro cell proliferation assay (WST.1, Table 5); type: cell-based; conditions: Homo sapiens, 72 h; OCI-My-2, day 3
Observable: IC50

Compound: CNc1cc(=O)[nH]c(=O)n1C1OC(CO)C(O)C1O (stereo not drawn)
Experimental Target: OCI-My-2
Observed Measurement: > 50 µM
--
Compound: Nc1cc(=O)[nH]c(=O)n1[C@@H]1O[C@H](CO)C(O)C1O (stereo partly drawn)
Experimental Target: OCI-My-2
Observed Measurement: > 50 µM
--
Compound: [N-]=[N+]=Nc1cc(=O)[nH]c(=O)n1[C@@H]1O[C@H](CO)C(O)C1O (stereo partly drawn)
Experimental Target: OCI-My-2
Observed Measurement: > 50 µM
